- System: MDA-MB-231 breast
- Measurement Notes: NCI tumour cell line growth inhibition, 48 h
*1 amine or outer side, *2 acyl side, *3 side chain or, on linkers, in order; H or OH if unused. Where a SMILES comes first, the peptide text is derived from it. CO = O=C([*:1])[*:2]
compounds and their reported TGI

# Compound, Assay System, TGI
rows = [
    ("Cc1cccc(Oc2ccc(Nc3ncnc4ccc(NC(=O)CN5CCN(C)CC5)cc34)cc2Cl)c1", "MDA-MB-231 breast", "3.17 µM"),
    ("CC(=O)OCCC[C@@H]1C(=C(C)C)CCC2[C@@]1(C)CC[C@@]1(C)C[C@](C)(CCC=C(C)C)CC[C@]21C (some centres undefined)", "MDA-MB-231 breast", "> 100 µM"),
    ("CC(C)C(NC(=O)C(CCCN=C(N)N)NC(=O)NC(Cc1ccccc1)C(=O)O)C(=O)NC(C=O)CCCN=C(N)N (stereo not drawn) ({Phe-CO}-Arg-Val-Arg-aldehyde; configuration not given here)", "MDA-MB-231 breast", "> 5 µM"),
    ("COc1ccc(OC)c2sc(N3C(=O)/C(=C/c4ccccc4S)N=C3c3ccccc3)nc12", "MDA-MB-231 breast", "> 100 µM"),
    ("CC(=O)O[C@H]1C(=O)[C@@]2(C)[C@H]([C@H](OC(=O)c3ccccc3)[C@]3(O)C[C@H](OC(=O)[C@H](OC(=O)CCC(=O)OC4CCC(S/N=C(N)/N=C(\\N)N(C)C)CC4)[C@@H](NC(=O)c4ccccc4)c4ccccc4)C(C)=C1C3(C)C)[C@]1(OC(C)=O)CO[C@@H]1C[C@@H]2O (some centres undefined)", "MDA-MB-231 breast", "> 31.4 µM"),
    ("CSC1=N/C(=C\\c2ccc(Cl)cc2)C(=O)N1CN1CCOCC1", "MDA-MB-231 breast", "> 100 µM"),
    ("O=c1[nH]cnc2c1nnn2[C@@H]1O[C@H](CO)[C@@H](O)[C@H]1O", "MDA-MB-231 breast", "> 100 µM"),
    ("O=c1oc2ccccc2c(O)c1C(c1ccc2ccccc2c1)c1c(O)c2ccccc2oc1=O", "MDA-MB-231 breast", "47.1 µM"),
    ("CO[C@@]12C[C@@H](CNC(=O)c3cc(Br)c[nH]3)O[C@@H]1NC(=O)N2", "MDA-MB-231 breast", "> 100 µM"),
    ("CCN(CC)CCCN1C(=O)c2c(c(C)c3c(oc4cc(O)ccc43)c2C)C1=O", "MDA-MB-231 breast", "3.47 µM"),
    ("O=C1C(Br)=C(c2ccccc2)C(c2ccccc2)=C1c1ccccc1", "MDA-MB-231 breast", "6.05 µM"),
    ("N#C/C(=C\\c1ccc(Br)cc1)n1nnc2cc(F)c(F)cc21", "MDA-MB-231 breast", "5.92 µM"),
    ("Nc1nc(F)nc2c1ncn2C1OC(COP(=O)(O)O)C(O)C1O (centres undefined)", "MDA-MB-231 breast", "772 µM"),
    ("CC1(C)C[C@H]2C3=CC[C@@H]4[C@@]5(C)CC[C@H](O)C(C)(C)[C@@H]5CC[C@@]4(C)[C@]3(C)C[C@@H](O)[C@@]23C[C@@H]1OC3=O", "MDA-MB-231 breast", "> 100 µM"),
    ("O=C(CSc1nc2sc3c(c2c(=O)n1-c1ccccc1)CCCCC3)N/N=C/c1ccc(F)cc1", "MDA-MB-231 breast", "3.27 µM"),
    ("CCCN(CCC)C(=S)N/N=C/c1cccc(C)n1", "MDA-MB-231 breast", "2.03 µM"),
    ("CCOC(=O)c1ccc(C(O)CC(=O)OC(C)(C)C)[nH]1 (centres undefined)", "MDA-MB-231 breast", "> 100 µM"),
    ("O=S(=O)([N-]c1nc2ccccc2nc1-[n+]1ccccc1)c1ccccc1", "MDA-MB-231 breast", "84.8 µM"),
    ("O=C1CC(n2cccc2)c2cc(Br)sc21 (centres undefined)", "MDA-MB-231 breast", "> 100 µM"),
    ("Fc1ccc(Nc2ccc3cc(OCCCN4CCOCC4)ccc3n2)cc1F", "MDA-MB-231 breast", "4.68 µM"),
    ("CC1=CC[C@@]2(C)[C@@H]([C@@H]1C)[C@H]1CC[C@@H]3[C@@]4(C)CC[C@H](O)C(C)(C)[C@@H]4CC[C@@]3(C)[C@]1(C)C[C@@H]2O", "MDA-MB-231 breast", "20.2 µM"),
    ("C/C(=C\\c1ccn(-c2ccc(N)cc2C(F)(F)F)n1)[C@@H]1C[C@@H]2O[C@]2(C)CCC[C@H](C)[C@H](O)[C@@H](C)C(=O)C(C)(C)[C@@H](O)CC(=O)O1", "MDA-MB-231 breast", "> 11.1 µM"),
    ("CCCN1C(=O)/C(=C/c2ccc(O)cc2)SC1=Nc1ccccc1", "MDA-MB-231 breast", "36.6 µM"),
    ("CC(=O)NNc1nc(C)c(C(/C=C/c2ccccc2O)=N/NC(=O)c2ccncc2)s1", "MDA-MB-231 breast", "> 100 µM"),
    ("C[C@@H](Oc1cc(-c2cnn(C3CC4(CCNCC4)C3)c2)cnc1N)c1c(F)ccc(Cl)c1Cl", "MDA-MB-231 breast", "3 µM"),
    ("CC1=C(C#N)C(=O)N(/N=C/c2ccc(Cl)cc2)C(=O)/C1=c1\\o/c(=C2/C(=O)N(/N=C/c3ccc(Cl)cc3)C(=O)C(C#N)=C2C)c2nccnc12", "MDA-MB-231 breast", "> 100 µM"),
    ("Cc1cc(Cl)ccc1NC(=O)/C(CC(=O)CC(c1ccccc1)c1c(O)c2ccccc2oc1=O)=N\\O (centres undefined)", "MDA-MB-231 breast", "> 100 µM"),
    ("Cc1cc(S(=O)(=O)/N=C(\\N)n2nc(C)c(C)c2C)c(SCc2ccccc2)cc1Cl", "MDA-MB-231 breast", "> 100 µM"),
    ("CN(C)Cc1cc(C(=O)/C=C/c2c(Cl)cccc2Cl)cc(CN(C)C)c1O", "MDA-MB-231 breast", "15.1 µM"),
    ("Cn1c(Cc2ccccc2)nc2cc3ccccc3cc21", "MDA-MB-231 breast", "37.5 µM"),
    ("C[N+]1(C)C2CCC1CC(OC(=O)C(CO)c1ccccc1)C2 (centres undefined)", "MDA-MB-231 breast", "> 100 µM"),
    ("COc1ccc2c(c1)C(=O)c1c-2c(N2CCN(C(=O)CN(C)C)CC2)nc2ccccc12", "MDA-MB-231 breast", "28.9 µM"),
    ("COC(=O)c1cccc(C)c1C1CN=NC12Cc1c(ccc(C)c1C)C2=O (centres undefined)", "MDA-MB-231 breast", "> 100 µM"),
    ("C=C1C(=O)O[C@H]2[C@H]1CC/C(Cn1cc(Cn3ccc4cc(Cl)ccc43)nn1)=C\\CC[C@@]1(C)O[C@@H]21", "MDA-MB-231 breast", "2.82 µM"),
]
